The measured values listed here are drawn from patent US20240025903A1.

# Experiment: In vivo pharmacokinetics
# Design: species or system Sprague-Dawley rats
# Cond: both sexes, Sprague-Dawley; rat, PO (oral gavage), dose-corrected plasma Cmax; read-out: CMAX PO
Measured Quantity: Cmax

Recorded results for 4 molecules are shown here.
CCC(C)CN1CC2N(Cc3ccc(O)nc3)CCC(=O)N2[C@@H](C)C1=O (some centres unmarked); 1 to 100 ng/mL
CC1C(=O)N(CC2CCC2)CC2N(C(=O)c3ccc(OC(F)F)cc3)CCC(=O)N12 (centres unmarked); 100 to 999 ng/mL
C=CCCN1CC2N(C(=O)c3ccc(C(F)(F)F)cc3)CCC(=O)N2C(C)C1=O (centres unmarked); 100 to 999 ng/mL
CC1C(=O)N(CCC2CCC2)CC2N(C(=O)c3ccc(C(F)(F)F)cc3)CCC(=O)N12 (centres unmarked); 100 to 999 ng/mL

Turning now to a further molecule:
Need Cmax of CCC(C)CN1CC2N(C(=O)c3ccc(C(F)(F)F)c(Cl)c3)CCC(=O)N2C(C)C1=O (centres unmarked) , thanks.
1 to 100 ng/mL
